Where do these numbers come from? They come from patent US12187709B2.

- testSystem: Cbl-b (Homo sapiens (Human), UniProt Q13191)
- Sequence (Q13191 40-426): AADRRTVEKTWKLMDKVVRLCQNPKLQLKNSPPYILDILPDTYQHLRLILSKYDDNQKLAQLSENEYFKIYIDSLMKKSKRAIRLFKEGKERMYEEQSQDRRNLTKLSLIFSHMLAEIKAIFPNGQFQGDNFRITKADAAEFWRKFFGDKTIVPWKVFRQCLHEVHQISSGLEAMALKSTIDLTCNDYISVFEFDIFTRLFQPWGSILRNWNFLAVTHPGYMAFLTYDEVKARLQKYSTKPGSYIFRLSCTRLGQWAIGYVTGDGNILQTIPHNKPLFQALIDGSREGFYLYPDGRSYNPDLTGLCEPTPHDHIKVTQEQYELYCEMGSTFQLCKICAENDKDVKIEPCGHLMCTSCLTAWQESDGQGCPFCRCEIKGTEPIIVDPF
- experimentNotes: Cbl-b LCK Ub TR-FRET assay (Cbl-b Lck HTRF)
- Format: biochemical
- conditionLabel: Cbl-b LCK Ub TR-FRET
measuredProperty: pIC50
The meaning of pIC50 here: minus log10 of the concentration in molar units.

Study these solved cases before continuing.
Cn1cnnc1C1(c2cccc(N3Cc4c(cc(CNC5(C)CCC5)cc4C(F)(F)F)C3=O)c2)CC2(CN(C3COC3)C2)C1; 4.82
CC(=O)[C@H]1C[C@@](c2cccc(N3Cc4c(cc(CNC5(C)CCC5)cc4C(F)(F)F)C3=O)c2)(c2nncn2C)C1; 7.40
Cn1cnnc1C1(c2cccc(N3Cc4c(cc(CNC5(C)CCC5)cc4C(F)(F)F)C3=O)c2)CC2(CC(F)(F)C2)C1; 7.68
Cn1cnnc1[C@]1(c2cccc(N3Cc4c(cc(CNC5(C)CCC5)cc4C(F)(F)F)C3=O)c2)C[C@@]2(CCO2)C1; 7.33
CO[C@H]1C[C@](c2cccc(N3Cc4c(cc([C@@H](C)NC5(C)CCC5)cc4C(F)(F)F)C3=O)c2)(c2nncn2C)C1 (single isomer, unassigned); 8.12

Query: Tell me pIC50 reported for Cn1cnnc1[C@]1(c2cccc(N3Cc4c(Cl)cc(CNC5(C)CCC5)cc4C3=O)c2)C[C@H](F)C1
Reply: 8.07

Query: For the compound CO[C@H]1C[C@](c2cc(NC3CC3)cc(N3Cc4c(cc(CNC5(C)CCC5)cc4C(F)(F)F)C3=O)c2)(c2nncn2C)C1 , give its reported pIC50.
Reply: 8.03

Query: Report pIC50, nothing else, for this compound: Cn1cnnc1[C@]1(c2cccc(N3Cc4c(cc(CNC5(C)CCC5)cc4C(F)(F)F)C3=O)c2)C[C@H](F)C1
Reply: 7.92

Query: Output measured pIC50 for this item: Cn1cnnc1[C@H](c1cccc(N2Cc3c(cc(CNC4(C)CCC4)cc3C(F)F)C2=O)c1)C1COC1
Reply: 5.11

Query: Read the entry Cn1cnnc1C(F)(c1cccc(N2Cc3c(cc(CNC4(C)CCC4)cc3C(F)(F)F)C2=O)c1)C1COC1 (single isomer, unassigned) [Compound 151] and write its reported pIC50.
Reply: 5.42

Query: Look up pIC50 of CCNc1cc(N2Cc3c(cc(CNC4(C)CCC4)cc3C(F)(F)F)C2=O)cc([C@]2(c3nncn3C)C[C@H](OC)C2)c1 and report it.
Reply: 8.05
